Target: T1, Cynomolgus SLC34A2 (Cynomolgus, UniProt A0A2K5UHY1 1-690)
T1 construct: whole, on cells; also called Cyno SLC34A2
T1 sequence: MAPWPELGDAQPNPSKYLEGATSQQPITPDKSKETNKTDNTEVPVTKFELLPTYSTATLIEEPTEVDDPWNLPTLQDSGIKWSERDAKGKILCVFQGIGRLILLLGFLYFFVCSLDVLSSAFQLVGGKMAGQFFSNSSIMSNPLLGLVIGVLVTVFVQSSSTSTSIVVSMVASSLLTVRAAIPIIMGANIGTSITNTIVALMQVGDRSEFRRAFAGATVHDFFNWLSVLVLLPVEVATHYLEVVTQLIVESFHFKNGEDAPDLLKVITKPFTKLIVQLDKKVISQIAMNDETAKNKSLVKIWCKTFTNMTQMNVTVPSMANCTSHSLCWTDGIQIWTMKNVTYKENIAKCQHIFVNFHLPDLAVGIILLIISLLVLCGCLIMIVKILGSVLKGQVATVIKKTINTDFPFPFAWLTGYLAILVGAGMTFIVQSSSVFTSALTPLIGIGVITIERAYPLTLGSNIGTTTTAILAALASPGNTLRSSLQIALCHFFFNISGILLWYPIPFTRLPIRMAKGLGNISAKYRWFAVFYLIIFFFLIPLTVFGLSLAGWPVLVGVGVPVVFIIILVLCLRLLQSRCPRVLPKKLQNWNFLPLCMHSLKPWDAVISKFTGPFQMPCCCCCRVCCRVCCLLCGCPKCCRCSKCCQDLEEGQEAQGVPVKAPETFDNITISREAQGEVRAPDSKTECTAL
Experiment: FACS, cells expressing Cynomolgus SLC34A2
Measurement type: Top (MFI)
Mention the unit after the number when you answer.

Kindly note the recorded Top (MFI) for xi55E5B6D12 hIgG1 (antibody, V domains shown, chimeric, hIgG1) VH: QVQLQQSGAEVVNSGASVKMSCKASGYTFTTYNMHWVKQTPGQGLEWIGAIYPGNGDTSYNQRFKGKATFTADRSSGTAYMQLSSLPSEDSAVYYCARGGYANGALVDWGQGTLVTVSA VL: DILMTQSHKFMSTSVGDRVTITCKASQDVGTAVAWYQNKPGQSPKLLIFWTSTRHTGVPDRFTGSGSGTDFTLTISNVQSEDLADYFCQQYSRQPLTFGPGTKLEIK , which is 3540 MFI

Field Top (MFI) (entry xi90G10H7 hIgG1 (antibody, V domains shown, chimeric, hIgG1) VH: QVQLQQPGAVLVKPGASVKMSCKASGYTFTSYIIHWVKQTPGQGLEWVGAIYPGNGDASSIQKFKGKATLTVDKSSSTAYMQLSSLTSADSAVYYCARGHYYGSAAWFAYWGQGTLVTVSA VL: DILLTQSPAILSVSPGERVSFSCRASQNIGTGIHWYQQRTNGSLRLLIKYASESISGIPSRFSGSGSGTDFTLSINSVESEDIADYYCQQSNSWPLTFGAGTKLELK ) reads 4560 MFI

Item: xi62G10E4G8 hIgG1 (antibody, V domains shown, chimeric, hIgG1) VH: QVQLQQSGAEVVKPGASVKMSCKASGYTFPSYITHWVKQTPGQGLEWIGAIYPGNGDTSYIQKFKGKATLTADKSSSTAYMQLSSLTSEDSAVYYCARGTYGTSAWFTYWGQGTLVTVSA VL: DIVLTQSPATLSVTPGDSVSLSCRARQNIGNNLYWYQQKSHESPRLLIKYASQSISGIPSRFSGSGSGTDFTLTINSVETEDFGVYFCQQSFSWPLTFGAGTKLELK | Top (MFI): 4020 MFI

Top (MFI) measured on xi87H12B7 hIgG1 (antibody, V domains shown, chimeric, hIgG1) VH: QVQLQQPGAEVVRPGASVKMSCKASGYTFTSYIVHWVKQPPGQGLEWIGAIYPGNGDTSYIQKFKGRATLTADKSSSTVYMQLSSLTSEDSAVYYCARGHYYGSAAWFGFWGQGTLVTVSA VL: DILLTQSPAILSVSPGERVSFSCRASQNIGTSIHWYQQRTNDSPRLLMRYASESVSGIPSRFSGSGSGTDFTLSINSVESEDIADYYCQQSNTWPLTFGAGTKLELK = 4710 MFI

Please fill in: Top (MFI) reported for xi30H9B8F9 hIgG1 (antibody, V domains shown, chimeric, hIgG1) VH: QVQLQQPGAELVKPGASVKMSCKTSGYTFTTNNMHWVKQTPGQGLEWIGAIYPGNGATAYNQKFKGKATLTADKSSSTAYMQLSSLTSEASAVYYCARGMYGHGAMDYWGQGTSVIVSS VL: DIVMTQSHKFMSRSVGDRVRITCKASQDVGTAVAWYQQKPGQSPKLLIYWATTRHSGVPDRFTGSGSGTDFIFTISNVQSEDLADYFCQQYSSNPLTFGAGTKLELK = 4080 MFI

Please fill in: Top (MFI) reported for xi28G3C6B9 hIgG1 (antibody, V domains shown, chimeric, hIgG1) VH: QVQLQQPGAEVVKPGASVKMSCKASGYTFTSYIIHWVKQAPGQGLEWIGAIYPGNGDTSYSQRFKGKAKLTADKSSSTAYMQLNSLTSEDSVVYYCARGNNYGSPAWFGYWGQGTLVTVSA VL: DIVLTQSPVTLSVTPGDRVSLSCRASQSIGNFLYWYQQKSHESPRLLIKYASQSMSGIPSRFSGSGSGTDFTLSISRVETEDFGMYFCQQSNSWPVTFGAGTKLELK = 3770 MFI
